Read-out record for HCoV-229E 3CL^pro (Human coronavirus 229E, UniProt P0C6X1): IC50

{"columns": ["CHEMICAL_STRING", "ASSAY_TARGET", "IC50"],
 "data": [
  ["CC(C)(C)[C@H](NC(=O)[C@@H]1CC1(F)F)C(=O)N1C[C@@H]2CCC[C@@H]2[C@H]1C(=O)NN(C[C@@H]1CC2(CC2)NC1=O)C(=O)[C@H](F)Cl", "HCoV-229E 3CL^pro (Human coronavirus 229E, UniProt P0C6X1)", "40 nM"],
  ["CCC(CC)[C@H](NC(=O)C(F)F)C(=O)N1C[C@@H]2CCC[C@@H]2[C@H]1C(=O)NN(C[C@H]1CC(C)(C)NC1=O)C(=O)[C@@H](F)Cl", "HCoV-229E 3CL^pro (Human coronavirus 229E, UniProt P0C6X1)", "332 nM"],
  ["CC1(C)C[C@@H](CN(NC(=O)[C@@H]2[C@H]3CCC[C@H]3CN2C(=O)[C@@H](NC(=O)[C@@H](F)Cl)C(C)(C)C)C(=O)[C@@H](F)Cl)C(=O)N1", "HCoV-229E 3CL^pro (Human coronavirus 229E, UniProt P0C6X1)", "4260 nM"]
]}

Dear colleague, could you please provide IC50 for the compounds listed below?
1. CC1(C)C[C@@H](CN(NC(=O)[C@@H]2[C@@H]3[C@H](CN2C(=O)[C@@H](NC(=O)[C@@H](F)Cl)C(C)(C)C)C3(C)C)C(=O)[C@@H](F)Cl)C(=O)N1
2. CCC(CC)[C@H](NC(=O)C(F)F)C(=O)N1C[C@@H]2CCC[C@@H]2[C@H]1C(=O)NN(C[C@H]1CC(C)(C)NC1=O)C(=O)[C@H](F)Cl

// result
3520 nM
6710 nM

----------
- ASSAY_TARGET: HCoV-229E 3CL^pro (Human coronavirus 229E, UniProt P0C6X1)
- Sequence (P0C6X1 2966-3267): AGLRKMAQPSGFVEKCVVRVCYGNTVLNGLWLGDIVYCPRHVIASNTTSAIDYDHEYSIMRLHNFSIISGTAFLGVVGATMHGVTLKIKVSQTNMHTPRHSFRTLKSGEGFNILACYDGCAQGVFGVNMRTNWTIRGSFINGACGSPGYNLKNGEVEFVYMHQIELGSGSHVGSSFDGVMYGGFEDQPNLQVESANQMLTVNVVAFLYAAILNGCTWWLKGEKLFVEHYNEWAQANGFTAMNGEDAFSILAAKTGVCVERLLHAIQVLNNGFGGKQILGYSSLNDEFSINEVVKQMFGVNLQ
Answer each item with its documented pIC50.
Give bare numbers, as −log10 of the molar value.

{"columns": ["COMPOUND", "REPORTED"],
 "data": [
  ["CCC(CC)[C@H](NC(=O)[C@@H](F)Cl)C(=O)N1C[C@@H]2CCC[C@@H]2[C@H]1C(=O)NN(C[C@@H]1CC(C)(C)NC1=O)C(=O)[C@@H](F)Cl", 6.40],
  ["CC1(C)C[C@@H](CN(NC(=O)[C@@H]2[C@H]3CCC[C@H]3CN2C(=O)[C@@H](NC(=O)[C@H](F)Cl)C(C)(C)C)C(=O)[C@H](F)Cl)C(=O)N1", 5.90],
  ["CC1(C)CC(CN(NC(=O)[C@@H]2[C@H]3CCC[C@H]3CN2C(=O)[C@@H](NC(=O)[C@@H]2CC2(F)F)C(C)(C)C)C(=O)[C@H](F)Cl)C(=O)N1 (mixture of isomers)", 5.60],
  ["C[C@H]1C[C@@H](CN(NC(=O)[C@@H]2[C@H]3CCC[C@H]3CN2C(=O)[C@@H](NC(=O)[C@@H]2CC2(F)F)C(C)(C)C)C(=O)[C@H](F)Cl)C(=O)N1", 7.52]
]}

Alright, here's another compound for you.
Form field, pIC50 with HCoV-229E 3CL^pro (Human coronavirus 229E, UniProt P0C6X1), item CC(C)(C)[C@H](NC(=O)[C@@H]1CC1(F)F)C(=O)N1C[C@@H]2CCC[C@@H]2[C@H]1C(=O)NN(C[C@H]1C(=O)N[C@H]2C[C@H]21)C(=O)[C@@H](F)Cl : 6.68
